Target: human CB2R (Homo sapiens, UniProt P34972)
Construct: host or cells: CHO cells
Sequence (P34972 whole entry): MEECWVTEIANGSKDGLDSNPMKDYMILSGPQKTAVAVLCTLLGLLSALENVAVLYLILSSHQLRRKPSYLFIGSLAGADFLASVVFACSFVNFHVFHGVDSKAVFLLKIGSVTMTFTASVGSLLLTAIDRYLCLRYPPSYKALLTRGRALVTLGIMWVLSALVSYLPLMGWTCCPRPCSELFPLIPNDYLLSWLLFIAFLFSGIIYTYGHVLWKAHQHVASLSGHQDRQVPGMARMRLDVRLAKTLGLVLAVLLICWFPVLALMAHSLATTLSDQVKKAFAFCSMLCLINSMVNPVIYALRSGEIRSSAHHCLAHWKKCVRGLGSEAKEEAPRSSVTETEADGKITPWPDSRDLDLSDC
Assay: CB2R mediated modulation of cAMP synthesis
Format: cell-based
QUANTITY_MEASURED: pEC50
One number for each entry, as −log10 of the molar value.

Please review the entries below; each comes with its answer.
1. COCCOC(C)(C)c1cc(NC(=O)C(C)(C)S(=O)(=O)C2CCOCC2)on1 :: 7.02
2. COCCOCC1(c2cc(NC(=O)C(C)(C)S(=O)(=O)C3CCOCC3)on2)CCCCC1 :: 7.23
3. C[C@H](O)C(C)(C)c1cc(NC(=O)C(C)(C)S(=O)(=O)CC[C@@H]2CCOC2)no1 :: 7.82
4. CCn1nc(NC(=O)C(C)(C)S(=O)(=O)C2CCOCC2)nc1-c1ccc(O)cc1 :: 8.00

Provide pEC50 for all items below, preserving their order.
1. CC[C@@H](O)C(C)(C)c1cc(NC(=O)C(C)(C)S(=O)(=O)C2CCOCC2)on1
2. C[C@H](O)C(C)(C)c1cc(NC(=O)C(C)(C)S(=O)(=O)c2ccc(F)cc2)on1
3. CO[C@@H](C)C(C)(C)c1cc(NC(=O)C(C)(C)S(=O)(=O)CC2CCOCC2)no1
4. C[C@@H](O)C(C)(C)c1cc(NC(=O)C(C)(C)S(=O)(=O)C2CCOCC2)on1
5. CC(=O)OCC(C)(C)c1cc(NC(=O)C(C)(C)S(=O)(=O)C2CCOCC2)on1
6. COCCOCC(C)(C)c1cc(NC(=O)C(C)(C)S(=O)(=O)C2CCN(S(C)(=O)=O)CC2)on1
7. CC[C@H](O)C(C)(C)c1cc(NC(=O)C(C)(C)S(=O)(=O)C2CCOCC2)on1
8. CC(C)(COCCO)c1cc(NC(=O)C(C)(C)S(=O)(=O)C2CCOCC2)no1

Result:
1: 7.15; 2: 7.38; 3: 7.52; 4: 7.70; 5: 8.38; 6: 7.96; 7: 7.33; 8: 8.62

---

Molecular target: human CB1R (Homo sapiens)
Construct: host or cells: CHO cells
Sequence (P21554 whole entry): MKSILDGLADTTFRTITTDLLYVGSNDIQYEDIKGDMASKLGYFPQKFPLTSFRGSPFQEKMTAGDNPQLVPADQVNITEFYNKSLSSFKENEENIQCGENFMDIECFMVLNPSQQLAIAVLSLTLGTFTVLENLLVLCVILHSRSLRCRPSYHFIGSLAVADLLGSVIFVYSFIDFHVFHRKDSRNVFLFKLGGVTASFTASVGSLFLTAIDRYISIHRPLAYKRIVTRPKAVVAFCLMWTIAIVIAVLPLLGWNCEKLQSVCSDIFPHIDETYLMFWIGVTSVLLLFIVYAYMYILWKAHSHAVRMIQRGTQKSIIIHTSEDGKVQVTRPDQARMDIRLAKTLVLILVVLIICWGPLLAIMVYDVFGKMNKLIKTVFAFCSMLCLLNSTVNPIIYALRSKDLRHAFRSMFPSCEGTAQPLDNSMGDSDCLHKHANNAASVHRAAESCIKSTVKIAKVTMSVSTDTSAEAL
Test: CB1R mediated modulation of cAMP synthesis
Type: cell-based
Protocol: C. CB1R Mediated Modulation of cAMP Synthesis: Compounds of the invention are evaluated for their CB1 agonist or inverse agonistic activity in accordance with the following experimental method. CHO cells expressing human CB1R (Euroscreen) are plated at a density of 5000 cells per well in 384 well plates and incubated overnight at 37° C. […] Cells are lysed and the cAMP concentration is measured using DiscoverX-XS cAMP kit, following the manufacturer's protocol. […] EC50 of agonists are calculated as follows. […]
QUANTITY_MEASURED: EC50

1) CC[C@H](O)C(C)(C)c1cc(NC(=O)C(C)(C)S(=O)(=O)C2CCOCC2)on1 :: > 50 µM
2) COCCOCC(C)(C)c1cc(NC(=O)C(C)(C)S(=O)(=O)CCC(F)(F)F)on1 :: > 50 µM
3) C[C@H](O)C(C)(C)c1cc(NC(=O)C(C)(C)S(=O)(=O)c2ccc(F)cc2)on1 :: > 50 µM

Provide EC50 for all items below, preserving their order.
1. C[C@H](O)C(C)(C)c1cc(NC(=O)C(C)(C)S(=O)(=O)C2CCOCC2)no1
2. CC(C)(COCCO)c1cc(NC(=O)C(C)(C)S(=O)(=O)C2CCN(S(C)(=O)=O)CC2)on1
3. C[C@H](O)C(C)(C)c1cc(NC(=O)C(C)(C)S(=O)(=O)CC[C@@H]2CCOC2)no1
4. CC(C)(OCCO)c1cc(NC(=O)C(C)(C)S(=O)(=O)C2CCOCC2)on1

Result:
1. > 50 µM
2. > 50 µM
3. 21 µM
4. > 50 µM

Every entry's value here was drawn from patent US8372874B2.
